Hello, the source for this data is patent US20110086806A1, in case you need it.

Consider the following binders and their measured kon readings.
- assayed target: T1, recombinant human IL-23R/Fc chimera (R&D Systems) (human, UniProt Q5VWK5 24-355)
- T1 construct: Bought; also called rhIL23RFc
- T1 sequence (looked up): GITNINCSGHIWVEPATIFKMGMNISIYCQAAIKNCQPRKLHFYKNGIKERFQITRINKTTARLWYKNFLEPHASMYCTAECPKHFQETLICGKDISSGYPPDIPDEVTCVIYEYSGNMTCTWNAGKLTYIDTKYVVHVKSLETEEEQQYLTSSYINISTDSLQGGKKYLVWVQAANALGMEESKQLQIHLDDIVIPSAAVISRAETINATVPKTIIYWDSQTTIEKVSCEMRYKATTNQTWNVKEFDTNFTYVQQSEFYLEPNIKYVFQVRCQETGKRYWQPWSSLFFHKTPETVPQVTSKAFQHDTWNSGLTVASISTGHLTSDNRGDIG
- test description: SPR
Numeric only. Scale: M⁻¹ s⁻¹

[[record]]
binder = "001-87.A5F ATRIMER complex (designed binder, Homotrimer of this chain (ATRIMER complex)., also called Atrimer A5F; not shown: A possible extra N-terminal Ser from the ompA junction is left out) EPPTQKPKKIVNAKKDVVNTKMFEELKSRLDTLAQEVALLKEQQALQTVCLKGTKVHMKCFLAFTQTKTFHEASEDCISRGGTLSTPQTGSENDALYEYLRQSVGNEAEIWLGLNGSVRSATWVDMTGARIAYKNWETEITAQPDGGFGYFGENCAVLSGAANGKWFDKRCRDQLPYICQFGIV"
numeric_result = 153000

[[record]]
binder = "101-51-1A8 ATRIMER complex (designed binder, Forms a homotrimer through the tetranectin coiled coil; one protomer is given., not shown: C-terminal tag: His/Myc (pANA4) or HA-StrepII (pANA10)) EPPTQKPKKIVNAKKDVVNTKMFEELKSRLDTLAQEVALLKEQQALQTVCLKGTKVHMKCFLAFTQTKTFHEASEDCISRGGTLSTPQTGSENDALYEYLRQSVGNEAEIWLGLNGSALTNTWVDMTGARIAYKNWERTPPWQPEGGFGYFGENCAVLSGAANGKWFDKRCRDQLPYICQFGIV"
numeric_result = 262000

[[record]]
binder = "001-87.A9E ATRIMER complex (designed binder, Homotrimer of this chain (ATRIMER complex)., not shown: A possible extra N-terminal Ser from the ompA junction is left out) EPPTQKPKKIVNAKKDVVNTKMFEELKSRLDTLAQEVALLKEQQALQTVCLKGTKVHMKCFLAFTQTKTFHEASEDCISRGGTLSTPQTGSENDALYEYLRQSVGNEAEIWLGLNGSALTNTWVDMTGARIAYKNWETEITAQPDGGLGYWGENCAVLSGAANGKWFDKRCRDQLPYICQFGIV"
numeric_result = 172000

[[record]]
binder = "105-20-2G12 ATRIMER complex (designed binder) EPPTQKPKKIVNAKKDVVNTKMFEELKSRLDTLAQEVALLKEQQALQTVCLKGTKVHMKCFLAFTQTKTFHEASEDCISRGGTLSTPQTGSENDALYEYLRQSVGNEAEIWLGLNGSPRTNTWVDMTGARIAYKNWETEITAQPDGGFGYFGENCAVLSGAANGKWFDKRCRDQLPYICQFGIV"
numeric_result = 398000


Now consider the entry below.
Which measured kon value corresponds to 101-51-1A4 ATRIMER complex (designed binder, Forms a homotrimer through the tetranectin coiled coil; one protomer is given., not shown: C-terminal tag: His/Myc (pANA4) or HA-StrepII (pANA10)) EPPTQKPKKIVNAKKDVVNTKMFEELKSRLDTLAQEVALLKEQQALQTVCLKGTKVHMKCFLAFTQTKTFHEASEDCISRGGTLSTPQTGSENDALYEYLRQSVGNEAEIWLGLNGSALTNTWVDMTGARIAYKNWERPALVQPRGGFGVFGENCAVLSGAANGKWFDKRCRDQLPYICQFGIV ?
1.02e+06
